The values you see were collected from the EternaBench riboswitch data.

Tested on: MS2 coat protein
testDescription: apparent Kd, MS2 coat protein; higher = weaker binding; RNA-MaP array; tryptophan 2.4 mM where present
conditionSummary: designed as: ON switch for tryptophan; no ligand
readoutType: apparent Kd (nM)
Give the value, in units of nM, as a plain number.

Lab book: apparent Kd of AGCACGGUGAUGGUAGCCGGACGCUAGGUACGAGGACCGGUACGGCCGCCACUCGAAGUCCUACGACAUGAGGAUCACCCAUGUA noted as 53.5

Lab book: apparent Kd of AAUGUCGGAUCGGCCGCCACUGGUUGGCCCUGUGUACAUGAGGAUCACCCAUGUCCAUCCCAAACCAGGACCGGGAUCUUUAUGU noted as 36.1

Lab book: apparent Kd of GCAUCCUAGUCGGCCGCCACUGGUAUCAACACCUUCACCCGUGUGCACAUGAGGAUCACCCAUGUUAGGACCGGGACUAGGAUGC noted as 8.4

Lab book: apparent Kd of ACAUGAGGAUCACCCAUGUUUGAUGUUCCUCGAGGACCGGUACGGCCGCCACUCGAACGAGUGGCGCGCGAGCGCGCGCUCGCGC noted as 12.2

Lab book: apparent Kd of GCAUCCUAGUCGGCCGCCACUGCAAUUGUAAUACUGCUACAUGAACAUGAGGAUCACCCAUGUAGCAGGACCGGGACUAGGAUGC noted as 164

Lab book: apparent Kd of UCGUAUGCGGCGGCCGCCACUCGCGGAUAACGAGAGCUUAACAUGAGGAUCACCCAUGUGUCAUGGAGGACCGGGCCCAUUCACA noted as 29.2

Lab book: apparent Kd of ACAUUGCGCUCGGCCGCCACUGGCUAUAGAUUUAUAGCAUUAAUGAACAUGAGGAUCACCCAUGUCAGGACCGGGAGCGAACCAU noted as 12.7
